Hello, the source for this data is ChEMBL document CHEMBL5236667, in case you need it.

- EXPERIMENTAL_SYSTEM: Coagulation factor X (Homo sapiens, UniProt P00742)
- Sequence (P00742 41-179 limits assumed): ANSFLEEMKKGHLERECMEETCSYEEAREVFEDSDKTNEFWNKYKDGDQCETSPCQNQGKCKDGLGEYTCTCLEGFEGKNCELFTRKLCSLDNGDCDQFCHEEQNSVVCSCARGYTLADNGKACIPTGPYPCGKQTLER
- Sequence (P00742 235-488 limits assumed): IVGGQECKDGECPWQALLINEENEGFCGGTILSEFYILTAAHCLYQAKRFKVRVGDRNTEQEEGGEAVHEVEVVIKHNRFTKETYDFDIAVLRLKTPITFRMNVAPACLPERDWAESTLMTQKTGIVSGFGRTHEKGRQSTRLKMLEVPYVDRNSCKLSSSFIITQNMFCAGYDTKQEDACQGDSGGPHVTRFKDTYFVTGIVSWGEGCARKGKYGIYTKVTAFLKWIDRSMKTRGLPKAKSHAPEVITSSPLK
- EXPERIMENT_SUMMARY: Inhibition of factor Xa (unknown origin) assessed as residual enzymatic activity at 20 nM
ASSAY_ENDPOINT: Activity (%)
Quick reminder: number only, in %, skip the unit.

INSERT INTO measurements (smiles_text, assay_endpoint, endpoint_unit, test_result) VALUES
  ('O=C(NC[C@H]1CN(c2ccc(N3CCOCC3=O)cc2)C(=O)O1)c1ccc(Cl)s1', 'Activity', '%', 45.8);

Identify the reported Activity for the following entry. "COc1ccc(-n2cc(C(N)=O)c3ncn(-c4ccc(N5CCOCC5=O)cc4)c(=O)c32)cc1" 46.7

Identify the reported Activity for the following entry. "COc1ccc(-n2cc(C#N)c3ncn(-c4ccc(N5CCOCC5=O)cc4)c(=O)c32)cc1" 59.8

Identify the reported Activity for the following entry. "COc1ccc(-n2cc(C#N)c3ncn(-c4ccc(N5CCC[C@H]5C(N)=O)cc4)c(=O)c32)cc1" 45.8
